# ASSAYED TARGET: FL-CHK1 (Homo sapiens)
# Construct: C-terminally His-tagged full-length human CHK1 (FL-CHK1); 6xHis (C); made in house; host or cells: baculovirus/insect cells
# Sequence (O14757 whole entry): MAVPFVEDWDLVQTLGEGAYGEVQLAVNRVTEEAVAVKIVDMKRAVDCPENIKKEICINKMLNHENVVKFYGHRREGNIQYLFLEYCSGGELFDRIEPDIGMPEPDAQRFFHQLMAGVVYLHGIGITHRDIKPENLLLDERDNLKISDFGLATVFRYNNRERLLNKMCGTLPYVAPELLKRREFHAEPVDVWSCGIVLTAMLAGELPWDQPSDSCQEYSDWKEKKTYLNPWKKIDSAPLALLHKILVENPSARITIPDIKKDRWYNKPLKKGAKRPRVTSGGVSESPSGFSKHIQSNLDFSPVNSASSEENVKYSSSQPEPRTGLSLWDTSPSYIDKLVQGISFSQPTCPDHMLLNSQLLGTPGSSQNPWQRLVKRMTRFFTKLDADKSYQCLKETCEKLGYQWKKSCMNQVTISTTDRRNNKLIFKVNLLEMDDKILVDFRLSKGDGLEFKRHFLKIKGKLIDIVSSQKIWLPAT
# ASSAY NOTES: CHK1 assay
# Format: biochemical
# Parameters: unit not given here
# RUN PARAMETERS: Table A combinatorial examples; footnote b not given
# Description: CHK-1 Construct for Assay: C-terminally His-tagged full-length human CHK1 (FL-CHK1) was expressed using the baculovirus/insect cell system. It contains 6 histidine residues (6×His-tag) at the C-terminus of the 476 amino acid human CHK1. The protein was purified by conventional chromatographic techniques. […]
VALUE TYPE: CHK1^b

Take a look at these entries with their results.
INSERT INTO assay_data (compound, readout_value) VALUES
  ('COc1cc(Nc2nc(N)c(-c3nc(-c4cc(C(C)(C)C)c(O)c(C(C)(C)C)c4)cs3)s2)cc(OC)c1OC', 25.3),
  ('COc1cc(Nc2nc(N)c(-c3nc(-c4ccc(Cl)cc4)cs3)s2)cc(OC)c1OC', 11.2),
  ('COc1cc(Nc2nc(N)c(-c3nc(-c4cccc(Br)c4)cs3)s2)cc(OC)c1OC', 13.5),
  ('COc1cc(Nc2nc(N)c(-c3nc(-c4ccc5c(c4)CCC(=O)N5)cs3)s2)cc2c1OCCO2', 31.9),
  ('COc1ccc(OC)c(-c2csc(-c3sc(Nc4cc(OC)c(OC)c(OC)c4)nc3N)n2)c1', 6.1);

[P] COc1cc(Nc2nc(N)c(-c3nc(-c4ccccc4[N+](=O)O)cs3)s2)cc(OC)c1OC
[Q] COc1cc(Nc2nc(N)c(-c3nc(-c4ccc5ccccc5c4)cs3)s2)cc2c1OCCO2
Looking only at measured CHK1^b, which entry is lower, P or Q ? Refer to your chosen item by its label in the answer.
Q
(Q: 9.2, P: 36.6)
